system.name: hDHODH (Homo sapiens)
Construct: measured using an N-terminally truncated recombinant hDHODH enzyme
Sequence (Q02127 29-395): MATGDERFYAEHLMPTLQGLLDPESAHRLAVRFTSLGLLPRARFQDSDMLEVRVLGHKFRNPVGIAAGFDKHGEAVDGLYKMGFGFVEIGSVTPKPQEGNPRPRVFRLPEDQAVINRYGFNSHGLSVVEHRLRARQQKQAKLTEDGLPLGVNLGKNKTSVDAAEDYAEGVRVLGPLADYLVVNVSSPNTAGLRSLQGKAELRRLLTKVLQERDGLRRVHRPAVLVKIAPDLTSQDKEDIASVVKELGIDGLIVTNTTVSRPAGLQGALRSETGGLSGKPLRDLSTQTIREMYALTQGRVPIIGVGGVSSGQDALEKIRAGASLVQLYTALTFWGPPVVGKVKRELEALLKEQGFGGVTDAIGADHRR
test.name: in vitro inhibition of hDHODH
pIC50: −log10 of the molar value.
property.label: pIC50

Some compounds with known pIC50 results, for comparison:
compound: [2H]C([2H])([2H])Oc1cccc(-c2ccc(NC(=O)c3cscc3C(=O)NCC)cc2)c1
property.label: pIC50
reported: < 5.00
--
compound: [2H]C([2H])([2H])Oc1cccc(C23CCC(NC(=O)C4=C(C(=O)O)CCC4)(CC2)CC3)c1 [reference compound]
property.label: pIC50
reported: < 4.30
--
compound: [2H]c1c([2H])c([2H])c(-c2c(F)c(F)c(NC(=O)c3ccsc3C(N)=O)c(F)c2F)c([2H])c1[2H]
property.label: pIC50
reported: 5.00 to 6.00

Kindly note the recorded pIC50 for "C#CCOc1cccc(-c2ccc(NC(=O)c3cscc3C(=O)NCC)cc2)c1" , which is < 5.00
